Where do these numbers come from? They come from patent US7803930B2.

system: human apolipoprotein B mRNA; test: Inhibition of human apolipoprotein B mRNA levels in HepG2 cells, quantitative real-time PCR; type: cell-based; conditions: Table 11 gene walk; HepG2 cells, 150 nM; averages from two experiments
In the oligonucleotide strings, read from the 5' end, every base follows the letter of its sugar. An asterisk marks phosphorothioate; unmarked linkages are phosphodiester. Other units and linkages are bracketed, terminal groups are in braces. A string of capitals states the bases alone. e = 2'-O-(2-methoxyethyl) (MOE); [5mC] = 5-methylcytosine; d = 2'-deoxy (DNA)
Hi there, I'd appreciate the recorded % INHIB 150 nm for every entry that follows.
Just so you know, I need the unit written after the number.

Examples with their reported % INHIB 150 nm follow.
308595 (antisense eT*e[5mC]*eT*eG*e[5mC]*dT*dT*d[5mC]*dG*d[5mC]*dA*d[5mC]*d[5mC]*dT*dT*e[5mC]*eT*eG*e[5mC]*eT) [compound 308595]    82%
308601 (antisense eT*eG*eG*eT*eA*dG*d[5mC]*d[5mC]*dT*d[5mC]*dA*dG*dT*d[5mC]*dT*eG*e[5mC]*eT*eT*e[5mC]) [compound 308601]    91%
308589 (antisense e[5mC]*eT*eT*e[5mC]*eT*dG*d[5mC]*dT*dT*dG*dA*dG*dT*dT*dA*e[5mC]*eA*eA*eA*e[5mC]) [compound 308589]    94%
308611 (eT*eT*eA*e[5mC]*e[5mC]*dA*dG*d[5mC]*d[5mC]*dA*d[5mC]*dA*dT*dG*d[5mC]*eA*eG*e[5mC]*eT*eT; antisense) [compound 308611]    95%

human apolipoprotein B mRNA assay, substance 308600 (antisense eG*eT*eA*eG*e[5mC]*d[5mC]*dT*d[5mC]*dA*dG*dT*d[5mC]*dT*dG*d[5mC]*eT*eT*e[5mC]*eG*e[5mC]) [compound 308600] , recorded % INHIB 150 nm = 89%
